Target: EP2 (Homo sapiens (Human), UniProt P43116)
Sequence (P43116 whole entry): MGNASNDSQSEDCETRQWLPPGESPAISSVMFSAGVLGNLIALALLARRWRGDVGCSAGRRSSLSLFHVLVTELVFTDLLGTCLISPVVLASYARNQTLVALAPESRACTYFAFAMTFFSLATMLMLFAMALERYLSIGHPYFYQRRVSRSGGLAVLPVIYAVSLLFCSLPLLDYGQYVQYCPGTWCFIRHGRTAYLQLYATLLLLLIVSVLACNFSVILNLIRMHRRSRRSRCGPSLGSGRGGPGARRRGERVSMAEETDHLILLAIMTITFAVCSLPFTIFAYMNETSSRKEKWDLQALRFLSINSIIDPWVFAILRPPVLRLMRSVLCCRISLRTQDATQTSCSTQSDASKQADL
Experiment: EP2 cAMP functional assay
metric: EC50 (µM)
Expressed in µM, but write only the number.

Some solved cases for reference:
INSERT INTO measurements (molecule, target_entity, output_unit, number) VALUES
  ('O=C(O)c1ccc(CC[C@H]2C(=O)CC[C@@H]2/C=C/C(O)Cc2cccc(C(F)(F)F)c2)cc1 (single isomer, unassigned) [Entry 12]', 'EP2 (Homo sapiens (Human), UniProt P43116)', 'µM', 0.035),
  ('O=C(O)c1ccc(CC[C@H]2C(=O)CC[C@@H]2/C=C/C(O)Cc2cccc(F)c2F)cc1 (single isomer, unassigned) [Entry 25]', 'EP2 (Homo sapiens (Human), UniProt P43116)', 'µM', 0.164),
  ('O=C(O)c1ccc(CC[C@H]2C(=O)CC[C@@H]2/C=C/C(O)Cc2cccc(Cl)c2)cc1 (stereo partly drawn)', 'EP2 (Homo sapiens (Human), UniProt P43116)', 'µM', 0.123),
  ('O=C(O)c1ccc(CC[C@H]2C(=O)CC[C@@H]2/C=C/C(O)Cc2cccc(C(F)(F)F)c2)cc1 (single isomer, unassigned) [Entry 11]', 'EP2 (Homo sapiens (Human), UniProt P43116)', 'µM', 1.01),
  ('O=C(O)c1ccc(CC[C@H]2C(=O)CC[C@@H]2/C=C/C(O)Cc2cccc(Br)c2)cc1 (single isomer, unassigned) [Entry 9]', 'EP2 (Homo sapiens (Human), UniProt P43116)', 'µM', 0.278),
  ('O=C(O)c1ccc(CC[C@H]2C(=O)CC[C@@H]2/C=C/C(O)Cc2ccccc2F)cc1 (single isomer, unassigned) [Entry 21]', 'EP2 (Homo sapiens (Human), UniProt P43116)', 'µM', 0.076),
  ('O=C(O)c1ccc(CC[C@H]2C(=O)CC[C@@H]2/C=C/C(O)Cc2cc(F)ccc2F)cc1 (single isomer, unassigned) [Entry 27]', 'EP2 (Homo sapiens (Human), UniProt P43116)', 'µM', 0.125),
  ('O=C(O)c1ccc(CC[C@H]2C(=O)CC[C@@H]2/C=C/C(O)Cc2cccc(F)c2F)cc1 (single isomer, unassigned) [Entry 26]', 'EP2 (Homo sapiens (Human), UniProt P43116)', 'µM', 0.008),
  ('O=C(O)c1ccc(CC[C@H]2C(=O)CC[C@@H]2/C=C/C(O)Cc2cccc(Br)c2)cc1 (single isomer, unassigned) [Entry 10]', 'EP2 (Homo sapiens (Human), UniProt P43116)', 'µM', 0.026),
  ('O=C(O)c1ccc(CC[C@H]2C(=O)CC[C@@H]2/C=C/C(O)Cc2ccc(F)cc2)cc1 (single isomer, unassigned)', 'EP2 (Homo sapiens (Human), UniProt P43116)', 'µM', 0.011);

Lookup: EC50 / EP2 (Homo sapiens (Human), UniProt P43116) / O=C(O)c1ccc(CC[C@H]2C(=O)CC[C@@H]2/C=C/C(O)Cc2cc(F)ccc2F)cc1 (single isomer, unassigned) [Entry 28]
0.01

Lookup: EC50 / EP2 (Homo sapiens (Human), UniProt P43116) / O=C(O)c1ccc(CC[C@H]2C(=O)CC[C@@H]2/C=C/C(O)Cc2cccc(F)c2)cc1 (single isomer, unassigned) [Entry 5]
0.078

* * *

Catalogue of molecules with associated EC50
Target: TP (Homo sapiens (Human), UniProt P21731)
Sequence (P21731 whole entry): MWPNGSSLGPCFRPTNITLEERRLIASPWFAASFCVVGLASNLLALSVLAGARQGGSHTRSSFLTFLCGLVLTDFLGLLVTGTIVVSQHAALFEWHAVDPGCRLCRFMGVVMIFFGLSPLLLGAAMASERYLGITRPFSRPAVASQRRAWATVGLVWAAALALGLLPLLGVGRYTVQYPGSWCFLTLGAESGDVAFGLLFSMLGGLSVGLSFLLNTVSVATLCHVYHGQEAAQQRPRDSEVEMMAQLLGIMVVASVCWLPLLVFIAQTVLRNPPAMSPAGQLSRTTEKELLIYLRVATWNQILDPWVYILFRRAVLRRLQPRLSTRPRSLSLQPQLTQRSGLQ
Experiment: Other receptors FLIPR: TP
Assay type: cell-based
Conditions: NA undefined in patent
Excerpt: U.S. patent application publication No. 20070129552, published on Jun. 7, 2007, incorporated by reference herein, describes the methods used to obtain the in vitro data in Table 1 below.
Expressed in nM, but write only the number.

Some solved cases for reference:
INSERT INTO results (molecule, output_unit, number) VALUES
  ('O=C(O)c1ccc(CC[C@H]2C(=O)CC[C@@H]2/C=C/C(O)Cc2cccc(C(F)(F)F)c2)cc1 (single isomer, unassigned)', 'nM', 218),
  ('O=C(O)c1ccc(CC[C@H]2C(=O)CC[C@@H]2/C=C/C(O)Cc2ccc(F)cc2)cc1 (single isomer, unassigned)', 'nM', 5600),
  ('O=C(O)c1ccc(CC[C@H]2C(=O)CC[C@@H]2/C=C/C(O)Cc2cccc(F)c2)cc1 (single isomer, unassigned)', 'nM', 7190),
  ('O=C(O)c1ccc(CC[C@H]2C(=O)CC[C@@H]2/C=C/C(O)Cc2cccc(Cl)c2)cc1 (stereo partly drawn)', 'nM', 4830),
  ('O=C(O)c1ccc(CC[C@H]2C(=O)CC[C@@H]2/C=C/C(O)Cc2cccc(Br)c2)cc1 (single isomer, unassigned)', 'nM', 108);

Now for a further molecule.
Using the record for O=C(O)c1ccc(CC[C@H]2C(=O)CC[C@@H]2/C=C/C(O)Cc2ccc(F)c(F)c2)cc1 (single isomer, unassigned) , report its EC50.
2450

* * *

Target: EP2 (Homo sapiens (Human))
Catalogue of compounds with associated pKi
# log scale: pKi equals minus log10 of the concentration in mol/L

Some solved cases for reference:
INSERT INTO measurements (compound, number) VALUES
  ('O=C(O)c1ccc(CC[C@H]2C(=O)CC[C@@H]2/C=C/C(O)Cc2cccc(C(F)(F)F)c2)cc1 (single isomer, unassigned) [Entry 12]', 5.88),
  ('O=C(O)c1ccc(CC[C@H]2C(=O)CC[C@@H]2/C=C/C(O)Cc2cc(F)ccc2F)cc1 (single isomer, unassigned) [Entry 27]', 5.44),
  ('O=C(O)c1ccc(CC[C@H]2C(=O)CC[C@@H]2/C=C/C(O)Cc2ccccc2F)cc1 (single isomer, unassigned) [Entry 22]', 5.99);

Lookup: pKi / EP2 (Homo sapiens (Human)) / O=C(O)c1ccc(CC[C@H]2C(=O)CC[C@@H]2/C=C/C(O)Cc2ccccc2F)cc1 (single isomer, unassigned) [Entry 21]
5.65

Lookup: pKi / EP2 (Homo sapiens (Human)) / O=C(O)c1ccc(CC[C@H]2C(=O)CC[C@@H]2/C=C/C(O)Cc2ccc(F)cc2)cc1 (single isomer, unassigned) [Entry 19]
5.03

Lookup: pKi / EP2 (Homo sapiens (Human)) / O=C(O)c1ccc(CC[C@H]2C(=O)CC[C@@H]2/C=C/C(O)Cc2cccc(F)c2)cc1 (single isomer, unassigned) [Entry 6]
5.75

* * *

Target: EP3 (Homo sapiens (Human), UniProt P43115)
Sequence (P43115 whole entry): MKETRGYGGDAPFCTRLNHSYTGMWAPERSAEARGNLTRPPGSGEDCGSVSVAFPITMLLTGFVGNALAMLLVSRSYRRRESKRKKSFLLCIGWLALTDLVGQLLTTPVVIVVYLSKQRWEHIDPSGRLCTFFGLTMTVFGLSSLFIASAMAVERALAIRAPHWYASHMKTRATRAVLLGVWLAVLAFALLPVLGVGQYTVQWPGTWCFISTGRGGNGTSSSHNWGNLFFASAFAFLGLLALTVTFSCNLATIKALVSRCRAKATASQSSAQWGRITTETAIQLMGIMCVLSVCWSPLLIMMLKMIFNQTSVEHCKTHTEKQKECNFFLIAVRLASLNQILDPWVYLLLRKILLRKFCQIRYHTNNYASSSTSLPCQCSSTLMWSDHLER
Assay: Other receptors FLIPR: EP3
Type: cell-based
Conditions: NA undefined in patent
Catalogue of compounds with associated EC50

Some solved cases for reference:
INSERT INTO assay_data (compound, result) VALUES
  ('O=C(O)c1ccc(CC[C@H]2C(=O)CC[C@@H]2/C=C/C(O)Cc2ccccc2F)cc1 (single isomer, unassigned)', '4670 nM'),
  ('O=C(O)c1ccc(CC[C@H]2C(=O)CC[C@@H]2/C=C/C(O)Cc2ccc3ccsc3c2)cc1 (stereo partly shown)', '67 nM'),
  ('O=C(O)c1ccc(CC[C@H]2C(=O)CC[C@@H]2/C=C/C(O)Cc2cc(F)ccc2F)cc1 (single isomer, unassigned)', '5990 nM');

Now for a further compound.
Using the record for O=C(O)c1ccc(CC[C@H]2C(=O)CC[C@@H]2/C=C/C(O)Cc2cccc(F)c2)cc1 (single isomer, unassigned) , report its EC50.
721 nM
